Where these numbers come from: PubChem BioAssay AID1845197

# System: 349418-098-R tumor spheroid viability;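 further: spheroids exposed to compound for 7 days before measurement; percent of vehicle control viability with 100% = DMSO-treated spheroids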
# assayComment: Anticancer human tumor 349418-098-R patient-derived lung adenocarcinoma cell line growth inhibition
# setupConditions: second compound 94.9 pM; first compound 0.0316 µM; stronger effect = lower value; spheroids with HUVEC and MSC
attributeMeasured: viability, T/C (%)
Dear colleague, please return just the value in %, with no unit written.

Param item = [2H]c1nc(C)nc([2H])c1-c1cc(NC[C@@H](C)c2cccc3c(C(=O)NC)ccnc23)ncn1 + COc1cc2c(cc1O)CCNC21CSC2c3c(OC(C)=O)c(C)c4c(c3C(COC1=O)N1C(O)C3Cc5cc(C)c(OC)c(O)c5C(C21)N3C)OCO4 ; retrieve measured viability, T/C.
99

Fill in: viability, T/C of Cc1cc(C)c(CNC(=O)c2cc(-c3ccc(CN4CCOCC4)cc3)cc3c2cnn3C2CCCC2)c(=O)[nH]1 + COc1cc2c(cc1O)CCNC21CSC2c3c(OC(C)=O)c(C)c4c(c3C(COC1=O)N1C(O)C3Cc5cc(C)c(OC)c(O)c5C(C21)N3C)OCO4 is ___
104

Fill blank: measured viability, T/C of the molecule COc1ccc([C@@H](O)c2cc(-c3ncnc4cc(N5CCOCC5)ccc34)c(F)cc2Cl)nn1 + COc1cc2c(cc1O)CCNC21CSC2c3c(OC(C)=O)c(C)c4c(c3C(COC1=O)N1C(O)C3Cc5cc(C)c(OC)c(O)c5C(C21)N3C)OCO4 is ____.
105

Consider the molecule COc1cc(C)[nH]c(=O)c1CN1CCc2c(Cl)cc(C(OC)C3COC3)c(Cl)c2C1=O (stereo unspecified) + COc1cc2c(cc1O)CCNC21CSC2c3c(OC(C)=O)c(C)c4c(c3C(COC1=O)N1C(O)C3Cc5cc(C)c(OC)c(O)c5C(C21)N3C)OCO4 and give its measured viability, T/C.
112

Query: viability, T/C; subject: CC1COCCN1c1cc(-c2ccnn2C)c2ccnc(-c3ccn[nH]3)c2n1 (stereo unspecified) + COc1cc2c(cc1O)CCNC21CSC2c3c(OC(C)=O)c(C)c4c(c3C(COC1=O)N1C(O)C3Cc5cc(C)c(OC)c(O)c5C(C21)N3C)OCO4
54.9

Query (molecule): CC(C)n1c(=O)n(C)c2cnc3cc(F)c(-c4ccc(OCCCN5CCCCC5)nc4)cc3c21 + COc1cc2c(cc1O)CCNC21CSC2c3c(OC(C)=O)c(C)c4c(c3C(COC1=O)N1C(O)C3Cc5cc(C)c(OC)c(O)c5C(C21)N3C)OCO4 ; field requested: viability, T/C
91.5
